Target: bacteriophage T4 DNA polymerase (Enterobacteria phage T4, UniProt P04415)
Construct: made in house
Sequence (P04415 whole entry): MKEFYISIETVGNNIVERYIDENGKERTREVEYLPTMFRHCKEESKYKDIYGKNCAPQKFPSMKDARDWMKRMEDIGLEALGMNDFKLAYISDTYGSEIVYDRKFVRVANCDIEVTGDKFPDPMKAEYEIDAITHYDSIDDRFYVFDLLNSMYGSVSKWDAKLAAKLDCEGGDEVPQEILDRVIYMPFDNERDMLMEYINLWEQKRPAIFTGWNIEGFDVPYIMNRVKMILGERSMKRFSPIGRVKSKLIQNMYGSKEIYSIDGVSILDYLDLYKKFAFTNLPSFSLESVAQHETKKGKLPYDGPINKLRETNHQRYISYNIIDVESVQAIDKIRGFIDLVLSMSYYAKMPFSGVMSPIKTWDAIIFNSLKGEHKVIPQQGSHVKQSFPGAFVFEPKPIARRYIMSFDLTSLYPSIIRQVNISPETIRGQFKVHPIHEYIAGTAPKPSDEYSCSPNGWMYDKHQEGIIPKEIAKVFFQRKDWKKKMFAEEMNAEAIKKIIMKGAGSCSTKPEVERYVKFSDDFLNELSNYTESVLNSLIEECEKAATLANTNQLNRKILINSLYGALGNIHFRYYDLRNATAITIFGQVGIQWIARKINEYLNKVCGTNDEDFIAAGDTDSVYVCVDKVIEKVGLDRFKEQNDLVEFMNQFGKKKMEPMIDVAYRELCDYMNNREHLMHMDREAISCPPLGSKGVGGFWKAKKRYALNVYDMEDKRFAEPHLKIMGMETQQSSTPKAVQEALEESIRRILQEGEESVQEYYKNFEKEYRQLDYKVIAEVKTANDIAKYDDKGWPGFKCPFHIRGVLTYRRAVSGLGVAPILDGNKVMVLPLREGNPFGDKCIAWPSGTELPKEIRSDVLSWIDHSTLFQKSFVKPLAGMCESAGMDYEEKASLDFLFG
Test: Counter-screen against bacteriophage T4 DNA polymerase
Assay type: biochemical
Settings: DRC-2; read at 90'; concentration 5
Observed Property: % inhibition T4 90' 5 (%)
Report the value in % with no unit label.

Here is how some molecules turned out for % inhibition T4 90' 5.
[
  {
    "Molecule": "O=C(c1ccccc1)N1CCc2c(nc3cc(-c4ccccc4)[nH]n3c2=O)C1 [Molecule 30]",
    "Value Measured": -13
  },
  {
    "Molecule": "Nc1cc(Oc2ccc(O)c(N)c2)ccc1O [KU0034728]",
    "Value Measured": -9.49
  },
  {
    "Molecule": "CCCc1ccc(Oc2coc3cc(OC)ccc3c2=O)cc1 [KU0193249]",
    "Value Measured": -2.2
  },
  {
    "Molecule": "COc1ccc(/C=C/c2cc(C(=O)O)c3ccccc3n2)cc1 [Molecule 5, COc1ccc(cc1)/C=C/c1nc2ccccc2c(c1)C(=O)O]",
    "Value Measured": 6.33
  },
  {
    "Molecule": "CC(C)CC(C(=O)O)N1C(=O)C2C3C=CC(C2C1=O)C1C(=O)N(C(CC(C)C)C(=O)O)C(=O)C31 (stereo not shown) [KU0193449]",
    "Value Measured": 3
  },
  {
    "Molecule": "Cc1cc2[nH]c(C(=O)Nc3ccc(F)cc3)c(CN3CCOCC3)c2s1 [Molecule 60]",
    "Value Measured": 2.34
  },
  {
    "Molecule": "COc1ccccc1CC(=O)N1CCc2c(nc3cc(-c4ccccc4Cl)[nH]n3c2=O)C1 [Molecule 49]",
    "Value Measured": -22
  },
  {
    "Molecule": "N#Cc1c(O)nc(N2CCCCC2)nc1-c1ccc2c(c1)OCO2 [KU0083146]",
    "Value Measured": 12
  }
]

% inhibition T4 90' 5 reported for this molecule Cc1ccc(N2CCC(NC(=O)Cc3cccs3)C2=O)cc1C (stereo not shown) [Molecule 57, O=C(NC1CCN(C1=O)c1ccc(c(c1)C)C)Cc1cccs1] : 11

% inhibition T4 90' 5 reported for this molecule Cc1cccc(-c2noc(C(=O)NNC(=O)C(Cl)(Cl)Cl)n2)c1 [KU0266208] : -1.21

% inhibition T4 90' 5 reported for this molecule Cn1nc(-c2nc(-c3ccccc3)no2)c2c1CCN(C(=O)Cc1cccs1)C2 [Molecule 58] : 7
